molecular target: T1, RSV postfusion F (postF), subtype B (respiratory syncytial virus, subtype B); assay: BLI, IgG
T1 construct: also called F ΔFP; Postfusion subtype B
T1 sequence (P13843 26-109, chain 1 of 2): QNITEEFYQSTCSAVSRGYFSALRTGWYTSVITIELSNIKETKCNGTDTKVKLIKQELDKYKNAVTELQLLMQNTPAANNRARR
T1 sequence (P13843 147-513, chain 2 of 2): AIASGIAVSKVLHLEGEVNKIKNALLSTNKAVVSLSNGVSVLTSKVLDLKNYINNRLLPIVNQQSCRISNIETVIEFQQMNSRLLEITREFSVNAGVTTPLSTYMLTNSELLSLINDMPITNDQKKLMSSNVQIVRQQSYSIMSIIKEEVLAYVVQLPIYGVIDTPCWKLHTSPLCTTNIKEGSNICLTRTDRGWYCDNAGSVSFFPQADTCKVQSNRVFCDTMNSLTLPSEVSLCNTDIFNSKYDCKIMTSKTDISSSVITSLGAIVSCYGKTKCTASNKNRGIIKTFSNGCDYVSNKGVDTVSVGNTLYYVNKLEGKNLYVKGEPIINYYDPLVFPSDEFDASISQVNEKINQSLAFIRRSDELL
observed.property: log10 of Kd (log10 of the value in nM)
Units before log transform: nM; reported quantity: Kd; transform: log10.

Query ADI-21037 (antibody, V domains shown) VH: QVQLVQSGGGVVQPGRSLRLSCAASGFPFSSYAMHWVRQAPGKGLEWVAVIWYPGGEKYSADSVTGRFTISRDNSKNTLYLQMSSLRVEDTAVYYCARRSVGAFDYWGQGTLVTVSS VL: DIQMTQSPLSLPVTPGEPASISCRSSQSLLNSNGYNYLDWYLQKPGQSPQVLIYLGSHRASGVPDRFSGSGSGTDFTLRISRVEAEDVGVYYCMQAVQTPYTFGQGTKVEIK yields log10 of Kd of 0.50

Lab book: log10 of Kd of ADI-20976 (antibody, V domains shown) VH: QVQLVESGGDLVQKGGSLRLSCAASGFTFDNYAMTWIRQAPGQGLEWVSTVSGFVLGTGYTTYYADSVKGRFTISRDSSKNTVYLQLNSLRAEDTAVYYCAKCAATRNECLWDYLQQWGQGTTVTVSS VL: EIVMTQSPSSLSASVGDRVTITCRASQSVSIYLNWYQQKGGKAPKLLIYGASALQRGVPSRFSGSGSGTDFTLTITSLQPEDFATYFCHQSYSAPQTFGQGTKVDIK noted as -0.52

So, ADI-14593 (antibody, V domains shown) VH: QVQLVQSGAEVKKPGESLKISCKGSGYSFSSYWVAWVRQMPGKGLEWMGIIYPADSDTRYSPSFQGQVTISADKSDSTAYLQWGSLKASDTAMYYCARSLYGSGDYFDYWGQGTLVTVSS VL: NFMLTQPHSVSESPGRTVIISCTRSSGSIATNYVQWYQQRPGSAPTTVIYEDNQRPSGVPDRFSGSIDSSSNSASLTISGLKTEDEADYYCQSYGSGDVVFGGGTKVTVL ? Its log10 of Kd was -0.97

So, ADI-21022 (antibody, V domains shown) VH: EVQLVETGPGLVKPSETLSLTCSVSGGSISSYYWSWLRQPPGKGLEWIGYIYNSGRTNYNPSLRSRVTISVDTSQNQFSLRLGSVTAADTAVYYCARGGAGDDLLRGSYRYLNFWGQGTLVTVSS VL: QSVLTQPPSVSVAPGQTARITCGGNNIGSKSVHWYQQKPGQAPVLVVYDDTERPSGIPERISGSNSGNTATLTISRVEAGDEADYYCQVWDSSSDHPDLLFGGGTKLTVL ? Its log10 of Kd was -0.45

# log10 of Kd of ADI-14605 (antibody, V domains shown) VH: EVQLLESGPALVKPTQTLTLTCTFSGFSLTTSGMCVSWIRQPPGKALEWLARIDWDDDQYFSTSLRTRLSISKDTSKNQVVLTMTNMDPVDTATYYCARSALNIAARGFDIWGQGTTVTVSS VL: QPGLTQPPSVSVSPGQTARITCSGDVLPKHFSYWYQQKPGQAPVLVIHRDSERPSGIPERFSGSSSGTTVTLTISGVQAEDEADYYCQFSDITNTVFGGGTKLTVL = -0.40
